For each of the compounds below, state its log10 of IC50.
tested on: HL-60; assay: Cytotoxicity against human HL60 cells after 72 hrs by WST8 assay; assay type: functional, cell-based; conditions: HL-60, 72 h
Recorded IC50 (log10, µM)

// query log10 of IC50 value for entry "COc1cc2ccc3cc(O)ccc3c2c(OC)c1O"
1.53

What about this compound? "COC1=CC(=O)C2=C(CCc3cccc(O)c32)C1=O"
0.45

What about this compound? "COc1cc2ccc3c(OC)c(O)ccc3c2c(OC)c1O"
2.01

What about this compound? "COc1c(O)c2c(c(OC)c1O)-c1c(O)cccc1CC2"
2.24

What about this compound? "COc1cc2ccc3cccc(O)c3c2c(OC)c1O"
1.72

What about this compound? "COc1ccc2c(ccc3cc(OC)c(O)c(OC)c32)c1"
1.29

What about this compound? "COc1cc2c(c(OC)c1O)-c1c(O)cccc1CC2"
1.99

What about this compound? "CO[C@@]12[C@H](COC(N)=O)C3=C(C(=O)C(C)=C(N)C3=O)N1C[C@@H]1N[C@@H]12"
-1.00

What about this compound? "COc1ccc2c(c1)CCc1cc(OC)c(O)c(OC)c1-2"
1.50

What about this compound? COc1cc2c(c(O[C@@H]3O[C@H](CO)[C@@H](O)[C@H](O)[C@H]3O)c1O)-c1c(O)cccc1CC2 [MARYLAURENCINOSIDE A]
1.72

What about this compound? "COc1c(O)cc2c(c1OC)-c1ccc(O)cc1CC2"
1.65

----------
test system: Bacillus subtilis; assay: Antibacterial activity against Bacillus subtilis NBRC 3134 after overnight incubation by microdilution method; format: functional
observed.property: MIC (µM)
# value in µM; strip the unit string

// query MIC value for entry "COc1cc2ccc3cccc(O)c3c2c(OC)c1O"
185

What about this molecule? "CC1(C)S[C@@H]2[C@H](NC(=O)[C@H](N)c3ccccc3)C(=O)N2[C@H]1C(=O)O"
0.36

What about this molecule? "COc1ccc2c(ccc3cc(OC)c(O)c(OC)c32)c1"
52.8

What about this molecule? "COc1cc2ccc3c(OC)c(O)ccc3c2c(OC)c1O"
250

What about this molecule? "COc1c(O)c2c(c(OC)c1O)-c1c(O)cccc1CC2"
65.1

What about this molecule? "COc1cc2ccc3cc(O)ccc3c2c(OC)c1O"
185

What about this molecule? "COC1=CC(=O)C2=C(CCc3cccc(O)c32)C1=O"
4.88
